Where do these numbers come from? They come from patent US7199114B2.

# protocolNotes: Turf plot trial at Clemson University (Example 85), turf quality
# Format: in vivo, creeping bentgrass, cv. Pennlinks
# conditionDescription: Table 5; Jun. 3, 2002; 1 to 9 scale; 50 grams active ingredient per 1000 square feet
# Description: Plots of creeping bentgrass, cv. “Pennlinks,” were treated with water based sprays of the test compounds. Sprays were delivered by CO2-charged sprayer to deliver the equivalent of 2 gallons of spray per 1000 sq. ft of plot area. Plots were 15 sq. ft. each, and treatments were mixed to apply material to 75 sq. ft (5 replicates), although only 4 replicates were treated. […] For brown patch, caused by Rhozoctonia sofani. a visual estimate of the percent of the plot area affected was recorded. […]
In this section we review reported Turf quality values for a set of compounds.
State the answer as a number, implicitly in ab.

Take a look at these entries with their results.
>  <compound>
C=C(C)[C@@H]1CC[C@]2(COC(=O)C[N+](C)(C)CCCCCCCC)CC[C@]3(C)C(CCC4[C@@]5(C)CC[C@H](OC(=O)C[N+](C)(C)CCCCCCCC)C(C)(C)C5CC[C@]43C)C12.[Cl-].[Cl-] (stereo partly drawn)

>  <valueUnits>
ab

>  <endpointResult>
5.18

$$$$
>  <compound>
C=C(C)[C@@H]1CC[C@]2(CO)CC[C@]3(C)C(CCC4[C@@]5(C)CC[C@H](OC(=O)C[N+](C)(C)CCCCCCCCCCCCCC)C(C)(C)C5CC[C@]43C)C12.[Cl-] (stereo partly drawn)

>  <valueUnits>
ab

>  <endpointResult>
5.30

$$$$
>  <compound>
C=C(C)[C@@H]1CC[C@]2(COC(=O)C[n+]3ccc(N(C)C)cc3)CC[C@]3(C)C(CCC4[C@@]5(C)CC[C@H](OC(=O)C[n+]6ccc(N(C)C)cc6)C(C)(C)C5CC[C@]43C)C12.[Cl-].[Cl-] (stereo partly drawn)

>  <valueUnits>
ab

>  <endpointResult>
5.40

$$$$

# next compound below
Tell me Turf quality reported for C=C(C)[C@@H]1CC[C@]2(COC(=O)C[N+](C)(C)CCCCCCCCCCCCCC)CC[C@]3(C)C(CCC4[C@@]5(C)CC[C@H](OC(=O)C[N+](C)(C)CCCCCCCCCCCCCC)C(C)(C)C5CC[C@]43C)C12.[Cl-].[Cl-] (stereo partly drawn)
5.10
